Cited source: PubChem BioAssay (NCI)

Tested on: SN12C renal
Test: NCI-60 one-dose screen, 48 h (100 = growth as untreated, 0 = no growth, -100 = all killed)
Settings: 10 µM unless noted
Compounds without any hit were thinned out: in the full panel of roughly 83,000, 20% have a hit.
Reported growth values for a set of compounds
Answer in %, number only, no unit symbol.

Example entries and their recorded answers appear below.
Give growth for the following compound: CCCCCCCCCCCC(=O)OC(C)C(=O)Nc1ccccc1 (stereo not drawn)
93

Give growth for the following compound: CC(C)OC(=O)[C@H](C)N[P@@](=O)(OC[C@@]1(C)O[C@@H](n2cc(F)c(N)nc2=O)C[C@@H]1O[P@](=O)(N[C@@H](C)C(=O)OC(C)C)Oc1ccccc1)Oc1ccccc1
72.6

Give growth for the following compound: C=CC1CN2CCC1CC2C(O)c1ccnc2ccc(OC)cc12 (stereo not drawn)
98.7

Give growth for the following compound: CCCCCCC(C)N(CC(C)(C)O)C(=O)c1ccc([N+](=O)[O-])cc1 (stereo not drawn)
104

Give growth for the following compound: CCOC(=O)C1CCCN1C(=O)C1(NC(C)=O)CCCC1 (stereo not drawn)
118

---
Give growth for the following compound: O=C1OC(c2ccc(-c3ccccc3)cc2)=C/C1=C/c1c2ccccc2cc2ccccc12
101

Give growth for the following compound: COC(=O)[C@@H]1[C@H](O)[C@H](C)[C@H](O)[C@H](C)/C=C\C=C(C)C(=O)Nc2c(C)c(OC(C)=O)c3c(c2O)C(=O)C(C)=C2OCOC(=C23)C(C)=C[C@@](C)(O)[C@H](O)[C@@H](C)[C@H]1OC(C)=O
112

Give growth for the following compound: COc1ccc(/C=C/C(=O)/C=C/c2cc3ccccc3[nH]c2=O)cc1
66.5
